Tested on: HL-60 human leukemia cells
test details: Cell growth inhibition (cell viability assay) on human leukemia cells HL-60
Type: cell-based
condition description: HL-60 cells, 48 hr treatment
Source text: In certain embodiments of the present invention, the remarkable cancer cell growth inhibitory potential of caffeic acid phenpropyl ester analogues was established by treating human leukemia, myeloma and lymphoma cell lines with the analogues of Table 1 and measuring the viability of blood cancer cells by cell viability assay. The efficacy of the analogues of Table 1 in comparison to a standard chemotherapy drug was confirmed. […]
readout: inhibition at 10 µM (%)
Answer with a number only, understood to be in %.

Reference set, count: 3
Cc1ccc(CCOC(=O)/C=C/c2ccc(O)c(O)c2)cc1 | 28.7
COc1cc(/C=C/C(=O)OCCCc2ccccc2)cc(OC)c1O | 24.1
O=C(/C=C/c1ccc(O)c(O)c1)NCCCc1ccccc1 | 8.7

Entry `O=C(/C=C/c1ccc(O)c(O)c1)OCC#Cc1ccccc1` has what inhibition at 10 µM?
32.4

Fill blank: measured inhibition at 10 µM of the compound `O=C(/C=C/c1ccc(O)c(O)c1)OCCc1ccc(F)cc1` is ____.
32.1

* * *

Test system: HL-60 human leukemia cells
test details: Cell growth inhibition (cell viability assay) on human leukemia cells HL-60
Type: cell-based
condition description: HL-60 cells, 48 hr treatment
readout: inhibition at 10 µM (%)
Numeric only. Scale: %

A selection of reference data follows.
O=C(/C=C/c1ccc(O)c(O)c1)OCCCc1ccccc1 [GL8, caffeic acid phenpropyl ester, reference compound] | 36
O=C(/C=C/c1ccc(O)c(O)c1)OCc1ccccc1 | 20.5
O=C(/C=C/c1ccc(O)c(O)c1)OCCc1ccccc1 [CAPE, reference compound] | -6.8
O=C(/C=C/c1ccc(O)cc1O)OCCCc1ccccc1 | -8.2
Oc1ccc(/C=C/COCCCc2ccccc2)cc1O | 54.3

Which value of inhibition at 10 µM has been reported for `COc1cc(/C=C/C(=O)OCCc2ccccc2)ccc1O` in the records?
14.4

* * *

Entries and their inhibition at 10 µM values follow.
System: HL-60 human leukemia cells
test details: Cell growth inhibition (cell viability assay) on human leukemia cells HL-60
Assay type: cell-based
condition description: HL-60 cells, 48 hr treatment
Write the value in % as a bare number.

COc1cc(/C=C/C(=O)OCCc2ccccc2)cc(OC)c1O | -13.3
Nc1cccc2c1CN(C1CCC(=O)NC1=O)C2=O (centres unmarked) [Lenalidomide, lenalidomide, reference compound] | 1.6
O=C(/C=C/c1cccc(O)c1O)OCCCc1ccccc1 | 13.6
O=C(/C=C/c1ccc(O)c(O)c1)Oc1ccccc1 | 6.8

We now examine a further compound.
Please give the measured inhibition at 10 µM for this compound: `COc1cc(/C=C/C(=O)OCCCc2ccccc2)ccc1O`
13.4

* * *

Test system: KMM-1 human myeloma cells
test details: Cell growth inhibition (cell viability assay) on IMiD-resistant human myeloma cells KMM-1
Type: cell-based
condition description: Homo sapiens, KMM-1 cells, 48 hr treatment
readout: inhibition at 10 µM (%)
// return numeric value only (unit: %, not printed)

# annotated cases, reported inhibition at 10 µM shown
Oc1ccc(/C=C/COCCCc2ccccc2)cc1O | 49.4
O=C(/C=C/c1ccc(O)c(O)c1)OC/C=C/c1ccccc1 | 16.1
O=C(/C=C/c1ccc(O)c(O)c1)OCc1ccccc1 | 15.9
O=C(/C=C/c1ccc(O)c(O)c1)OCCCc1ccccc1 [GL8, caffeic acid phenpropyl ester, reference compound] | 28.2
O=C(/C=C/c1ccc(O)c(O)c1)OCCCCc1ccccc1 | 27.2
O=C(/C=C/c1ccc(O)cc1O)OCCCc1ccccc1 | -0.2
O=C(/C=C/c1ccc(O)c(O)c1)OCCc1ccc(F)cc1 | 25.9
O=C(/C=C/c1ccc(O)c(O)c1)CCCc1ccccc1 | 22.2

# input compound: `O=C(/C=C/c1cccc(O)c1O)OCCCc1ccccc1` ; wanted: its inhibition at 10 µM
15.1

Quick check: inhibition at 10 µM of `COc1cc(/C=C/C(=O)OCCc2ccccc2)cc(OC)c1O` ?
-8.6

Where do the numbers come from? From patent US12605352B2.
